Attribute: IC50
- systemTested: PRMT5-MEP50 enzyme complex (Homo sapiens, UniProt O14744)
- Sequence (O14744 2-637 limits assumed): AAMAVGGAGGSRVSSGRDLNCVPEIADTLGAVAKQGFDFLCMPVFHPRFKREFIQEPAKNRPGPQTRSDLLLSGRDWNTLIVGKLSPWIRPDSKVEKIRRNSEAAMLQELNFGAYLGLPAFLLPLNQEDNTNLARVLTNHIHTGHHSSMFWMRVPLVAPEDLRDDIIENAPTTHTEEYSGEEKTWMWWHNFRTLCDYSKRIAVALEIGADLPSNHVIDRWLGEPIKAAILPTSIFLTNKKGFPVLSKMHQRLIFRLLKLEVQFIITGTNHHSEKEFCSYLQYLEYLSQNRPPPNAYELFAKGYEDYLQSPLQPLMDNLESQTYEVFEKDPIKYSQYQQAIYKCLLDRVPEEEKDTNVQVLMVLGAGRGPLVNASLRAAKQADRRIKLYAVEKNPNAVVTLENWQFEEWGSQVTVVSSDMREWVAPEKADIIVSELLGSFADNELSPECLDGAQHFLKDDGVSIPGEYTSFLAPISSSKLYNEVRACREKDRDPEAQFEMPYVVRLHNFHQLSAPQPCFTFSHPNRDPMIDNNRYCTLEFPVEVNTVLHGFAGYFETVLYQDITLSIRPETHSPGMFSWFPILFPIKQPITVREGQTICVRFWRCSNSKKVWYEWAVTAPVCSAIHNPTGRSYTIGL
- Sequence (Q9BQA1 2-342 partner limits assumed): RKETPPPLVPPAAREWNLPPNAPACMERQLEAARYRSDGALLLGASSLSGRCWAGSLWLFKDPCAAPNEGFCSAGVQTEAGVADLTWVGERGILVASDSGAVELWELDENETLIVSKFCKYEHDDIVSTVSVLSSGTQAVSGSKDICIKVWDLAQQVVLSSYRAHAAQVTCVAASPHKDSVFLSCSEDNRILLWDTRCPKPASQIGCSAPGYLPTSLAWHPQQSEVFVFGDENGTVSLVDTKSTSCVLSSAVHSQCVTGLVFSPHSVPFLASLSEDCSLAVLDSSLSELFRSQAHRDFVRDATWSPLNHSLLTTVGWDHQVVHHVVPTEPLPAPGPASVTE
- assayExplanation: In vitro PRMT5 enzyme activity assay (methylation of histone H4 arginine H4R3, ELISA absorbance at 450 nm)
- measurementParameters: S-adenosylmethionine, histone H4 peptide, 2 hours at room temperature, 8 points 10 μM to 0.128 nM
Where a name gives a salt, the structure may show the parent alone.

>  <molecule>
COC1CCN(Cc2ccc3c(c2)CCN(C[C@H](O)CN2CCc4ccccc4C2)C3=O)CC1

>  <IC50>
1 to 100 nM

$$$$
>  <molecule>
O=C(CO)Nc1ccc2c(c1)CCN(C[C@H](O)CN1CCc3ccccc3C1)C2=O

>  <IC50>
1 to 100 nM

$$$$
>  <molecule>
O=C1c2ccc(C#CCO)cc2CCN1C[C@H](O)CN1CCc2ccccc2C1

>  <IC50>
100 to 1000 nM

$$$$
>  <molecule>
O=C1c2ccc(NCC3CCOCC3)cc2CCN1C[C@H](O)CN1CCc2ccccc2C1

>  <IC50>
1 to 100 nM

$$$$
>  <molecule>
CN1CCCN(c2ccc3c(c2)CCN(C[C@H](O)CN2CCc4ccccc4C2)C3=O)CC1=O

>  <IC50>
1 to 100 nM

$$$$
>  <molecule>
O=C1c2ccc(N3CC4(COC4)C3)cc2CCN1C[C@H](O)CN1CCc2ccccc2C1

>  <IC50>
1 to 100 nM

$$$$
>  <molecule>
O=C1c2ccc(Br)cc2CCN1C[C@H](O)CN1CCc2ccccc2C1

>  <IC50>
1 to 100 nM

$$$$
>  <molecule>
O=C1c2ccc(N3CCCC3)cc2CCN1C[C@H](O)CN1CCc2ccccc2C1

>  <IC50>
100 to 1000 nM

$$$$
>  <molecule>
CN(C)C1CCN(c2ccc3c(c2)C(C)(C)CN(C[C@H](O)CN2CCc4ccccc4C2)C3=O)CC1 [Example 126, dihydrochloride]

>  <IC50>
1 to 100 nM

$$$$
>  <molecule>
O=C1c2ccc(C#Cc3ccncc3)cc2CCN1C[C@H](O)CN1CCc2ccccc2C1

>  <IC50>
100 to 1000 nM

$$$$
>  <molecule>
CN1CCC(Oc2ccc3c(c2)CCN(C[C@H](O)CN2CCc4ccccc4C2)C3=O)CC1

>  <IC50>
100 to 1000 nM

$$$$
>  <molecule>
CN(C)CCOC1CCN(c2ccc3c(c2)CCN(C[C@H](O)CN2CCc4ccccc4C2)C3=O)CC1

>  <IC50>
100 to 1000 nM

$$$$
>  <molecule>
CN(C)CC#Cc1ccc2c(c1)CCN(C[C@H](O)CN1CCc3ccccc3C1)C2=O

>  <IC50>
100 to 1000 nM

$$$$
>  <molecule>
O=C1c2ccc(OC3CCCN(CCF)C3)cc2CCN1C[C@H](O)CN1CCc2ccccc2C1 (stereo partly drawn)

>  <IC50>
100 to 1000 nM

$$$$
>  <molecule>
CN(C)C(=O)C1CCN(c2ccc3c(c2)CCN(C[C@H](O)CN2CCc4ccccc4C2)C3=O)CC1

>  <IC50>
100 to 1000 nM

$$$$
>  <molecule>
CC(=O)N(C)C1CCN(c2ccc3c(c2)CCN(C[C@H](O)CN2CCc4ccccc4C2)C3=O)CC1

>  <IC50>
1 to 100 nM

$$$$
>  <molecule>
O=C1c2ccc(N3CCN(C4CCOCC4)CC3)cc2CCN1C[C@H](O)CN1CCc2ccccc2C1

>  <IC50>
100 to 1000 nM

$$$$
>  <molecule>
CC(=O)N1CCCN(c2ccc3c(c2)CCN(C[C@H](O)CN2CCc4ccccc4C2)C3=O)CC1

>  <IC50>
1 to 100 nM

$$$$
>  <molecule>
O=C1c2ccc(NC3CCOCC3)cc2CCN1C[C@H](O)CN1CCc2ccccc2C1

>  <IC50>
1 to 100 nM

$$$$
>  <molecule>
O=C1c2ccc(N3CCC(N4CCOCC4)CC3)cc2CCN1C[C@H](O)CN1CCc2ccccc2C1

>  <IC50>
100 to 1000 nM

$$$$
>  <molecule>
C[C@H]1CN(c2ccc3c(c2)CCN(C[C@H](O)CN2CCc4ccccc4C2)C3=O)CCO1

>  <IC50>
1 to 100 nM

$$$$

---

- systemTested: PRMT5-MEP50 enzyme complex (Homo sapiens)
- assayExplanation: In vitro PRMT5 enzyme activity assay (methylation of histone H4 arginine H4R3, ELISA absorbance at 450 nm)
- measurementParameters: S-adenosylmethionine, histone H4 peptide, 2 hours at room temperature, 8 points 10 μM to 0.128 nM
pIC50: −log10 of the molar value.

>  <compound>
O=C1c2ccc(N3CCOCC3)cc2CCN1C[C@H](O)CN1CCc2ccccc2C1 [Example 4]

>  <pIC50>
7.00 to 9.00

$$$$
>  <compound>
C[C@@H]1CN(c2ccc3c(c2)CCN(C[C@H](O)CN2CCc4ccccc4C2)C3=O)CCO1 [Example 16]

>  <pIC50>
7.00 to 9.00

$$$$
>  <compound>
CC(=O)N1CCCC(Nc2ccc3c(c2)CCN(C[C@H](O)CN2CCc4ccccc4C2)C3=O)CC1 (stereo partly drawn) [Example 98]

>  <pIC50>
6.00 to 7.00

$$$$
>  <compound>
O=C1c2ccc(NCc3ccncc3)cc2CCN1C[C@H](O)CN1CCc2ccccc2C1 [Example 10]

>  <pIC50>
7.00 to 9.00

$$$$
>  <compound>
CC(C)C(=O)N1CCN(c2ccc3c(c2)CCN(C[C@H](O)CN2CCc4ccccc4C2)C3=O)CC1 [Example 70]

>  <pIC50>
7.00 to 9.00

$$$$
>  <compound>
CC1CC(C)CN(c2ccc3c(c2)CCN(C[C@H](O)CN2CCc4ccccc4C2)C3=O)C1 (stereo partly drawn) [Example 28]

>  <pIC50>
6.00 to 7.00

$$$$
>  <compound>
O=C1c2ccc(N3CCCC(O)C3)cc2CCN1C[C@H](O)CN1CCc2ccccc2C1 (stereo partly drawn) [Example 38]

>  <pIC50>
6.00 to 7.00

$$$$
>  <compound>
O=C1c2ccc(-c3ccc(F)nc3)cc2CCN1C[C@H](O)CN1CCc2ccccc2C1 [Example 15]

>  <pIC50>
7.00 to 9.00

$$$$
>  <compound>
CCCc1ccc2c(c1)CCN(C[C@H](O)CN1CCc3ccccc3C1)C2=O [Example 13]

>  <pIC50>
7.00 to 9.00

$$$$
>  <compound>
CC(=O)N1CCCC(Nc2ccc3c(c2)CCN(C[C@H](O)CN2CCc4ccccc4C2)C3=O)C1 (stereo partly drawn) [Example 93]

>  <pIC50>
7.00 to 9.00

$$$$
>  <compound>
O=C1c2ccc(OCCN3CCOCC3)cc2CCN1C[C@H](O)CN1CCc2ccccc2C1 [Example 113]

>  <pIC50>
7.00 to 9.00

$$$$
>  <compound>
O=C1c2ccc(NC3COC3)cc2CCN1C[C@H](O)CN1CCc2ccccc2C1 [Example 51]

>  <pIC50>
6.00 to 7.00

$$$$
>  <compound>
O=C1c2ccc(N3CCN(C(=O)C(F)(F)F)CC3)cc2CCN1C[C@H](O)CN1CCc2ccccc2C1 [Example 62]

>  <pIC50>
7.00 to 9.00

$$$$
>  <compound>
O=C1c2ccc(CN3CCCOCC3)cc2CCN1C[C@H](O)CN1CCc2ccccc2C1 [Example 54]

>  <pIC50>
7.00 to 9.00

$$$$
>  <compound>
O=C1c2ccc(N3CCC(N4CCCCC4)CC3)cc2CCN1C[C@H](O)CN1CCc2ccccc2C1 [Example 107]

>  <pIC50>
6.00 to 7.00

$$$$
>  <compound>
CC(=O)N1CCN(c2ccc3c(c2)CCN(C[C@H](O)CN2CCc4ccccc4C2)C3=O)CC12CC2 [Example 82]

>  <pIC50>
7.00 to 9.00

$$$$
>  <compound>
CC(C)(C)OC(=O)N1CCC(c2ccc3c(c2)CCN(C[C@H](O)CN2CCc4ccccc4C2)C3=O)CC1 [Example 63]

>  <pIC50>
6.00 to 7.00

$$$$
>  <compound>
O=C1c2ccc(-c3cccnc3)cc2CCN1C[C@H](O)CN1CCc2ccccc2C1 [Example 9]

>  <pIC50>
7.00 to 9.00

$$$$
